biological target: EGFR (L858R T790M C797S) (Homo sapiens, UniProt P00533, C797S/L858R/T790M); test: Biochemical EGFR inhibition assay (Caliper mobility shift), EGFR LRTMCS mutant; settings: inhibitory activity against EGFR LRTMCS mutant; apparent IC50; read-out: Ext Enz LRTMCS
Sequence (P00533 25-1210 T790M/C797S/L858R): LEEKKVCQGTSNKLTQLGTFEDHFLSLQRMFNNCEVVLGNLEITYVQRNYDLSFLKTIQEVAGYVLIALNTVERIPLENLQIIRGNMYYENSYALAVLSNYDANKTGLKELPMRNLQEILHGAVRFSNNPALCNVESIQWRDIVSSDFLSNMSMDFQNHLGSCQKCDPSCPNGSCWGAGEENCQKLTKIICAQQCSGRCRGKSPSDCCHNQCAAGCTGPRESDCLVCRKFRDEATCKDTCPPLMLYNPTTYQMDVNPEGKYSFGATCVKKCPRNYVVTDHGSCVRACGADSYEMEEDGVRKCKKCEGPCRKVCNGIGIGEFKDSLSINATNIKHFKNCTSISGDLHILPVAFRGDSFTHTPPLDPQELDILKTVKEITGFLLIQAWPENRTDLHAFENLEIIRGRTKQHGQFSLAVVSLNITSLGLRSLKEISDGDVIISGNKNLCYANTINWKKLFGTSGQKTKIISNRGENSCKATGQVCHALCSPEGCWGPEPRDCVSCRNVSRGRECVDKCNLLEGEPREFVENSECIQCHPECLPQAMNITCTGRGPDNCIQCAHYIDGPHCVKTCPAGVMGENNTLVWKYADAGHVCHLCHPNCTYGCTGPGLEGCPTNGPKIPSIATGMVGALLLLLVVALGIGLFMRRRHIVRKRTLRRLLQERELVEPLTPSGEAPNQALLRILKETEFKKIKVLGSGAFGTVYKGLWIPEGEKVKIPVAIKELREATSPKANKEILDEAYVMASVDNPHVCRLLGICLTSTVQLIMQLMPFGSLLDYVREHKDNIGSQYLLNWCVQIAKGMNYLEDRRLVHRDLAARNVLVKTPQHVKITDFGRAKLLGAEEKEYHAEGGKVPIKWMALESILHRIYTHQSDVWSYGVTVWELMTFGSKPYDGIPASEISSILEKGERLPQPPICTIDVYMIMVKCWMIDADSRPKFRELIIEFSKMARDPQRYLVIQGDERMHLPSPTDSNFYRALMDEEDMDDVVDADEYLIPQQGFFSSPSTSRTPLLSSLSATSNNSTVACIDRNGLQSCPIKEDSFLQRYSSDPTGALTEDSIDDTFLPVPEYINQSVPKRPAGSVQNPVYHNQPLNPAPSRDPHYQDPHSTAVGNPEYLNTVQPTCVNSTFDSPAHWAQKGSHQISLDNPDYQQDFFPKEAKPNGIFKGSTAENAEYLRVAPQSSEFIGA
# Lookup of reported IC50 keyed by entry

Field: example entries. Status: answers known.
compound	IC50
CC(C)c1ccc(N2C[C@H](CS(C)(=O)=O)[C@H]2C)c2cnc(Nc3ccnc(N4CC[C@@H](OCCO)[C@@](C)(F)C4)n3)cc12 (single isomer, unassigned)	≤ 15 nM
CC(CF)c1ccc(N2CC(CS(C)(=O)=O)C2)c2cnc(Nc3ccnc(N4CC[C@@H](O)[C@@](C)(F)C4)n3)cc12 (single isomer, unassigned)	≤ 15 nM
[2H]C([2H])([2H])O[C@H]1[C@@H](O)CN(c2nccc(Nc3cc4c(C(C)C)ccc(N5C[C@H](CS(C)(=O)=O)[C@H]5C)c4cn3)n2)CC1(F)F (single isomer, unassigned) [Compound 314]	30.1 to 100 nM

stdin: Hello, please tell me recorded IC50 for this one: CCS(=O)(=O)CC1CN(c2ncc(C(C)C)c3cc(Nc4ccnc(N5CC[C@@H](O)[C@@](C)(F)C5)n4)ncc23)C1 (single isomer, unassigned)
stdout: ≤ 15 nM

stdin: Hello, please tell me recorded IC50 for this one: "CC(C)c1ccc(N2CC(CS(=O)(=O)C3CC3)C2)c2cnc(Nc3ccnc(N4CC[C@@H](O)[C@@](C)(F)C4)n3)cc12"
stdout: ≤ 15 nM

stdin: Hello, please tell me recorded IC50 for this one: COCCO[C@@H]1CCN(c2nccc(Nc3cc4c(C(C)C)ccc(N5CC(CS(C)(=O)=O)C5)c4cn3)n2)C[C@H]1O (racemic)
stdout: 20.1 to 30 nM

stdin: Hello, please tell me recorded IC50 for this one: CC(C)c1ccc(N2C[C@H](CS(C)(=O)=O)[C@H]2C)c2cnc(Nc3ccnc(N4C[C@@H](F)[C@@H](O)[C@](C)(F)C4)n3)cc12 (single isomer, unassigned)
stdout: ≤ 15 nM

stdin: Hello, please tell me recorded IC50 for this one: CO[C@@H]1[C@H](O)CN(c2nccc(Nc3cc4c(C(C)C)cnc(N5C[C@H](CS(C)(=O)=O)[C@H]5C)c4cn3)n2)CC1(F)F (single isomer, unassigned) [Compound 236]
stdout: ≤ 15 nM

stdin: Hello, please tell me recorded IC50 for this one: CCS(=O)(=O)C[C@@H]1CN(c2ncc(C(C)C)c3cc(Nc4ccnc(N5CC[C@@H](O)[C@@](C)(F)C5)n4)ncc23)[C@H]1C (single isomer, unassigned)
stdout: ≤ 15 nM

stdin: Hello, please tell me recorded IC50 for this one: "CC(C)c1ccc(N2CC(CS(C)(=O)=O)C2)c2cnc(Nc3ccnc(N4CCOCC4)n3)cc12"
stdout: 15.1 to 20 nM

stdin: Hello, please tell me recorded IC50 for this one: CCS(=O)(=O)C[C@H]1CN(c2ccc(C(C)C)c3cc(Nc4ccnc(N5CC[C@@H](OCCO)C(F)(F)C5)n4)ncc23)[C@@H]1C (single isomer, unassigned) [Compound 303]
stdout: 15.1 to 20 nM

stdin: Hello, please tell me recorded IC50 for this one: "CC(C)c1ncc(N2C[C@H](CS(C)(=O)=O)[C@H]2C)c2cnc(Nc3ccnc(N4CC[C@@H](OC5CC5)[C@@H](F)C4)n3)cc12"
stdout: ≤ 15 nM

Sourced from patent US12172983B2
